Biological target: Integrin alpha-4 (Homo sapiens) (UniProt P13612)
Sequence (P13612 whole entry, looked up): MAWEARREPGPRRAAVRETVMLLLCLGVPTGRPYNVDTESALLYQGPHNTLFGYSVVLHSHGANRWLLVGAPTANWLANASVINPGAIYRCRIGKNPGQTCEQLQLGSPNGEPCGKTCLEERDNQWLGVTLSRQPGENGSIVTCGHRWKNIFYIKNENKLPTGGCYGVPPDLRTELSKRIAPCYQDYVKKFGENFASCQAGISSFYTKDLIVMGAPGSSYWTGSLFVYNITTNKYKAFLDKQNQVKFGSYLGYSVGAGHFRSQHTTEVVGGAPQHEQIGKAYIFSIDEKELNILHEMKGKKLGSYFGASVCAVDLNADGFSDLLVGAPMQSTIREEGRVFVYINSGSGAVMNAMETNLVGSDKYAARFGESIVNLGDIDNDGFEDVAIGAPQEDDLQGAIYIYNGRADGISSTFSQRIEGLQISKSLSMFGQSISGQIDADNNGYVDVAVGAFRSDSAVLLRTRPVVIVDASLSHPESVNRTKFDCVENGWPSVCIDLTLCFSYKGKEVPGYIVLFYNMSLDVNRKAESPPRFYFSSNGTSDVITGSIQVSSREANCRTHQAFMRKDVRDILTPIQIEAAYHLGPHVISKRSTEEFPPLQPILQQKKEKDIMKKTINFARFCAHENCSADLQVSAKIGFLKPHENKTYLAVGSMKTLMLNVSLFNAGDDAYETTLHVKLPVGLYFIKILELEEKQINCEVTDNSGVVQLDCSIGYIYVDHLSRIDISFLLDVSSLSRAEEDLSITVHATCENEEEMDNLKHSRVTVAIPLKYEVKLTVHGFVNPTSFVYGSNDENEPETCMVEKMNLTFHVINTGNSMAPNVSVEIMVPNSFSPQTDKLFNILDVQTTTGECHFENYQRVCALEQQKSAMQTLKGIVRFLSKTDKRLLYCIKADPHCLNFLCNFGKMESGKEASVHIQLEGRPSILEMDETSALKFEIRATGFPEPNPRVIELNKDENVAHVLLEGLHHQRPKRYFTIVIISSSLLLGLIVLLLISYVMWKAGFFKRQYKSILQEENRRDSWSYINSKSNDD
Test: blockers of LDV-FITC ligand binding on VLA-4 – Jurkat cells, Mn2+ activated, primary screen (AID 529);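 further: 0% = Mn2+ stimulated cells lacking compound and 100% = ligand binding without Mn2+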
Settings: LDV-FITC binding with Mn2+, flow cytometry, active compounds read high, 100% = Mn2+-driven binding gain fully reversed, screened at 10 µM (by protocol)
Among all 24,000 compounds or so, about 50 (0.2%) were called active. Roughly 9% stayed inconclusive and do not appear here. Shown is part of a subset that was picked to be rich in actives.

compound	inhibition [%]
COc1cccc(OCC(=O)Nc2ccccc2C(N)=O)c1	-12
CCn1c(SCC(=O)Nc2ccccc2F)nc2c(c1=O)SC(C)C2 (stereo not given)	3.3
Cc1cc(N2C(=O)c3ccc(C(=O)NCc4ccccc4)cc3C2=O)no1	3
O=C(Cn1c(=O)n(Cc2ccco2)c(=O)c2ccccc21)NCC1CCCO1 (stereo not given)	-8.5
CCOC(=O)CN1CC23C=CC(O2)C(C(=O)Nc2ccc(F)cc2)C3C1=O (stereo not given)	-44.5
CCOC(=O)N1CCN(C(=O)CSc2nnc(-c3c[nH]c4ccccc34)n2CCOC)CC1	9
Cc1ccc(C(=O)N(CN2CCCC2=O)c2ccc(F)cc2)cc1	-10
CCc1nnc(NC(=O)CSc2nnc(Cc3ccccc3)n2-c2ccc(OC)cc2)s1	-26.5
COc1ccc(NC(=O)CN2CCN(S(=O)(=O)c3ccc(F)cc3)CC2)cc1Cl	9
CCOc1ccc(CCNC(=O)C2CCN(c3ccc(N4CCOCC4)nn3)CC2)cc1OCC	-6

----------
Molecular target: Integrin alpha-4 (Homo sapiens) (UniProt P13612)
Experiment: blockers of LDV-FITC ligand binding on VLA-4 – Jurkat cells, Mn2+ activated, primary screen (AID 529);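 further: 0% = Mn2+ stimulated cells lacking compound and 100% = ligand binding without Mn2+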
Conditions: LDV-FITC binding with Mn2+, flow cytometry, active compounds read high, 100% = Mn2+-driven binding gain fully reversed, screened at 10 µM (by protocol)
Out of some 24,000 compounds screened, about 50 (0.2%) were called active. Inconclusive results (about 9%) are left out. The sample as a whole holds a higher share of actives than the screen did.
value.kind: inhibition (%)

compound	unit.abbrev	result.value
Cc1cc(=O)n2nc(N3CCCC3C(=O)NCCCN3CC(C)CC(C)C3)sc2n1 (configuration not stated)	%	-1
COc1cc2c(cc1OC)C(c1ccc(C)o1)CC(=O)N2 (configuration not stated)	%	3
CC(C)OCCCNC(=O)CNC(=O)c1cccs1	%	10
CCOC(=O)C1CCN(C(=O)C2CCN(S(=O)(=O)c3c(C)noc3C)CC2)CC1	%	10
CC1=NCCN1S(=O)(=O)c1ccc(Br)c(C)c1	%	-21.5
O=c1c2[nH]c3ccc(Cl)cc3c2ncn1Cc1ccccn1	%	-1
CC(Sc1sc(=S)sc1SC(C)C(=O)O)C(=O)O (configuration not stated)	%	-53.5
CCN(CCCNC(=O)C1CCN(S(=O)(=O)c2cnc[nH]2)CC1)c1ccccc1	%	0
N#Cc1ccc(COC(=O)Cn2nnc(-c3ccccc3)n2)cc1	%	-9.5
Cc1onc(-c2ccccc2Cl)c1C(=O)NCCn1ccc2ccccc21	%	-7
CCOC(=O)CSc1nnc(CNC(=O)c2ccco2)n1-c1ccc(F)cc1	%	14
CCOC(=O)c1nnn(CC(=O)Nc2cccc(F)c2)c1C(=O)OCC	%	13.7
CCOc1ccccc1NC(=O)c1cc(S(=O)(=O)N2CCC3(CC2)OCCO3)ccc1F	%	8
COc1cccc(NS(=O)(=O)c2ccc3[nH]cc(C(=O)NCCCOC(C)C)c(=O)c3c2)c1	%	-26
COc1cc2[nH]c(=O)n(CCC(=O)NC3CCN(Cc4ccccc4)CC3)c(=O)c2cc1OC	%	11
O=C(CC(NS(=O)(=O)c1ccc(Cl)cc1)c1ccco1)NC1CCCC1 (configuration not stated)	%	1
CCn1cc(C(=O)N2CC=C(c3ccccc3)CC2)c(=O)c2ccc(C)nc21	%	4
CC(=O)NC(C)c1nc2ccccc2n1Cc1ccccc1F (configuration not stated)	%	1
CCCOc1ccc(C2c3c(oc4cc(C)c(C)cc4c3=O)C(=O)N2CCCN2CCOCC2)cc1 (configuration not stated)	%	1
Cc1ccc(C)c(NC(=O)CSc2nnc(Cc3cccn3C)n2-c2ccc(F)cc2)c1	%	10
OCc1n[nH]c(CO)n1	%	2
CCOc1ccc(NC(=O)N(CCC(C)C)C(C)c2ccco2)cc1 (configuration not stated)	%	-12
